Tested on: 422866-222-R5-J1-PDC spheroid viability;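 also: spheroids exposed to agents for seven days before readout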
Assay Protocol: Anticancer human tumor 422866-222-R5-J1-PDC patient-derived pancreatic adenocarcinoma cell line growth inhibition [CLK]
Assay Conditions: second compound 3.16 µM; first compound 10 µM; stronger effect = lower value; spheroids with HUVEC and MSC
Below, each entry is listed with its recorded viability, T/C.
Report the value in % with no unit label.

Observe how each entry below is paired with its result.
# Molecule, Tested Target, viability, T/C (%)
measured = [
    ("O=C(c1cc(Cc2n[nH]c(=O)c3ccccc23)ccc1F)N1CCN(C(=O)C2CC2)CC1 + CNC(=O)c1ccc(Nc2nc(OC3CCCC3)c3c(-c4ccc5nc(C)oc5c4)c[nH]c3n2)c(OC)c1", "422866-222-R5-J1-PDC spheroid viability", 59.2),
    ("COc1ccc([C@@H](O)c2cc(-c3ncnc4cc(N5CCOCC5)ccc34)c(F)cc2Cl)nn1 + CNC(=O)c1ccc(Nc2nc(OC3CCCC3)c3c(-c4ccc5nc(C)oc5c4)c[nH]c3n2)c(OC)c1", "422866-222-R5-J1-PDC spheroid viability", 37.7),
    ("CCCS(=O)(=O)Nc1ccc(F)c(C(=O)c2c[nH]c3ncc(-c4ccc(Cl)cc4)cc23)c1F + CNC(=O)c1ccc(Nc2nc(OC3CCCC3)c3c(-c4ccc5nc(C)oc5c4)c[nH]c3n2)c(OC)c1", "422866-222-R5-J1-PDC spheroid viability", 84),
    ("Nc1ccn(C2OC(CO)C(O)C2(F)F)c(=O)n1 (stereo not given) + CN1CCN(c2cc(C(=O)Nc3cc4cc(-c5cnn(C)c5)ccc4cn3)ccn2)CC1", "422866-222-R5-J1-PDC spheroid viability", 10.9),
]

Attention now shifts to the item below.
Item COC1C=CCC(C)C(C)S(=O)(=O)NC(=O)c2ccc3c(c2)N(CC2CCC21)CC1(CCCc2cc(Cl)ccc21)CO3 (stereo not given) + CNC(=O)c1ccc(Nc2nc(OC3CCCC3)c3c(-c4ccc5nc(C)oc5c4)c[nH]c3n2)c(OC)c1 has what recorded viability, T/C?
82
